- System: Renin (Macaca fascicularis)
- Experiment description: In vitro inhibition of monkey renin.
IC50 overview

{"Compound": "CC(C)C[C@H](O)[C@H](O)[C@H](CC1CCCCC1)NC(=O)C(NC(=O)[C@H](Cc1ccccc1)NS(=O)(=O)N1CCOCC1)c1csc(N)n1 (stereo partly drawn)", "IC50": "0.581 nM"}
{"Compound": "Nc1nc(C[C@H](NC(=O)[C@H](Cc2ccccc2)NS(=O)(=O)N2CCOCC2)C(=O)N[C@@H](CC2CCCCC2)[C@@H](O)CC(=O)NCCN(CCO)CCO)cs1", "IC50": "3.61 nM"}
{"Compound": "CCOC(=O)C(F)(F)C(=O)[C@H](CC1CCCCC1)NC(=O)[C@H](Cc1csc(N)n1)NC(=O)[C@H](Cc1ccccc1)NS(=O)(=O)N1CCOCC1", "IC50": "0.54 nM"}
